# Tested on: RAW-Dual (murine macrophage reporter line)
# ASSAY EXPLANATION: NF-kB reporter (SEAP) activity fold change vs agonist alone; higher = enhanced NF-kB activity
# DETAILS: modulator concentration 10 µM; agonist: CpG ODN 1826 0.5 ug/mL
Hi there, I'd appreciate the recorded NF-kB reporter for every entry that follows.
Give bare numbers.

Guide cases for NF-kB reporter, answers given:
MOLECULE	MEASURED TARGET	NF-kB reporter
CCN(CC)C(=S)SSC(=S)N(CC)CC	RAW-Dual (murine macrophage reporter line)	1.2
COc1ccc(CC(=O)N2CCCc3ccccc32)cc1OC	RAW-Dual (murine macrophage reporter line)	0.909
CCCCCCC1OCC2(CO)C(C)C=C(C)C1C2C (stereo unspecified)	RAW-Dual (murine macrophage reporter line)	0.532
COc1ccc(CCC(=O)NCc2nc(N(C)C)nc(N3CCCCC3)n2)cc1	RAW-Dual (murine macrophage reporter line)	0.8
COCCn1c(C)cc(C(=O)CSc2ncnc3sc4c(c23)CCC4)c1C	RAW-Dual (murine macrophage reporter line)	0.991

Moving on to another molecule below.
Given the entry C=C1CCN([C@H](C)[C@](O)(Cn2cncn2)c2ccc(F)cc2F)CC1 , what NF-kB reporter was observed with RAW-Dual (murine macrophage reporter line)?
1.21

###

# Test system: RAW-Dual (murine macrophage reporter line)
# ASSAY EXPLANATION: viability score (confluency relative to resting cells, overnight) (fraction); higher = more viable, active = viable (0.7 or more)
# DETAILS: modulator concentration 10 µM
TEST READOUT: viability score
Numbers only.

MOLECULE	MEASURED TARGET	viability score
CCCCCCCCc1ccc(CCC(N)(CO)CO)cc1.Cl	RAW-Dual (murine macrophage reporter line)	0.513

Give viability score for each of the items listed below.
1. COc1ccccc1C1C(C(C)=O)=C(O)C(=O)N1CCN(C)C (stereo not given)
2. O=C(NCCC(CCO)c1ccccc1)c1cccc(Br)c1 (stereo not given)
3. O=C(NCC(O)Cc1ccccc1)Nc1ccc(F)cc1 (stereo not given)
4. C=C1c2cccc(O)c2C(=O)C2=C(O)[C@]3(O)C(=O)C(C(N)=O)=C(O)[C@@H](N(C)C)[C@@H]3[C@@H](O)[C@H]12.Cl
5. CCCCOc1cc(C(=O)NCCN(CC)CC)c2ccccc2n1.Cl

[0.988, 0.996, 0.971, 0.962, 0.93]

Give viability score for each of the items listed below.
1. Cc1cc(OCC(=O)NCCn2nc(C3CC3)ccc2=O)cc(C)c1Cl
2. CC(c1ccccc1)c1nnc(NC(=O)c2ccco2)s1 (stereo not given)
3. O=C(Oc1ccc2ccccc2c1)c1ccccc1
4. CCCCCOC(=O)COc1ccc(S(=O)(=O)c2ccc(OCC(=O)OCCCCC)cc2)cc1
5. CCCC(=O)OCOC(=O)C1=C(C)NC(C)=C(C(=O)OC)C1c1cccc(Cl)c1Cl (stereo not given)
6. COc1ccc(C=CC(=O)O)cc1OC
7. O=[N+]([O-])c1ccc2nc(S)sc2c1

[0.778, 0.968, 0.975, 1.03, 1, 0.996, 0.992]

Give viability score for each of the items listed below.
1. CC(=O)Nc1ccc(S(=O)(=O)N2CCC(Oc3nc(C)cc(C)n3)C2)cc1 (stereo not given)
2. COc1cc2nc(N3CCN(C(=O)C4CCCO4)CC3)nc(N)c2cc1OC.Cl.O.O (stereo not given)
3. CC(C)(C)SCC(O)Cn1c2ccc(Br)cc2c2cc(Br)ccc21 (stereo not given)
4. OCCN1CCN(CCCN2c3ccccc3Sc3ccc(Cl)cc32)CC1
5. Nc1ccccc1NC(=O)c1ccc(CNc2nccc(-c3cccnc3)n2)cc1
6. O=C(CCCn1nc(-c2ccc(F)cc2)ccc1=O)Nc1ccc(C(F)(F)F)cc1
7. Cc1ccccc1CNC(=O)CN(c1cccc(C(F)(F)F)c1)S(C)(=O)=O

[0.998, 0.996, 0.999, 0.907, 0.56, 0.99, 1]

###

Hi there, I'd appreciate the recorded viability score for every entry that follows.
# System: RAW-Dual (murine macrophage reporter line)
# ASSAY EXPLANATION: viability score (confluency relative to resting cells, overnight) (fraction); higher = more viable, active = viable (0.7 or more)
# DETAILS: modulator concentration 10 µM
Give bare numbers.

Guide cases for viability score, answers given:
COMPOUND	MEASURED TARGET	viability score
O=C(NC1CCCCC1)c1cccc(C(F)(F)F)c1	RAW-Dual (murine macrophage reporter line)	0.997
CC(=O)Oc1ccc2occ(C(=O)c3cccs3)c2c1	RAW-Dual (murine macrophage reporter line)	1.02
COc1ccc(C(O)CN2CCN(c3cccc(C)c3C)CC2)cc1OC (configuration not stated)	RAW-Dual (murine macrophage reporter line)	0.997
COc1ccc(C(C)(C#N)CC#N)cc1 (configuration not stated)	RAW-Dual (murine macrophage reporter line)	1.03
N[C@@H]1CONC1=O	RAW-Dual (murine macrophage reporter line)	1

Give viability score for each of the items listed below.
1. CCOc1ccc(Nc2nc(Nc3ccc(OCC)cc3)nc(N3CCOCC3)n2)cc1
2. CN(Cc1cnc2nc(N)nc(N)c2n1)c1ccc(C(=O)NC(CCC(=O)O)C(=O)O)cc1 (configuration not stated) [Prestw-373]
3. Cc1ccc(-c2cc(NC(=O)c3ccc([N+](=O)[O-])cc3)[nH]n2)cc1
4. CC(NC(=O)c1nc2ccccc2[nH]1)c1ccc(Br)cc1 (configuration not stated)
5. Clc1cnc(NC2CCN(c3ncnc4c3CCCC4)CC2)nc1
6. COC(CNS(=O)(=O)c1cccnc1)c1ccc(C)s1 (configuration not stated)
7. CC(CN1c2ccccc2Sc2cccnc21)N(C)C.Cl (configuration not stated)

1. 0.762
2. 0.791
3. 0.971
4. 1
5. 0.954
6. 0.997
7. 1

###

# Tested on: RAW-Dual (murine macrophage reporter line)
# ASSAY EXPLANATION: NF-kB reporter (SEAP) activity fold change vs agonist alone; higher = enhanced NF-kB activity
# DETAILS: modulator concentration 10 µM; agonist: LPS 0.1 ug/mL
NF-kB reporter below 1 gives condition not met; NF-kB reporter at or above it gives condition met.

COMPOUND	MEASURED TARGET	GROUP
CN(C)CCS(=O)c1ccccc1 (stereo unspecified)	RAW-Dual (murine macrophage reporter line)	condition not met
O=C(NCCc1nc(C2CC2)cc(C(F)(F)F)n1)c1c(F)cccc1Cl	RAW-Dual (murine macrophage reporter line)	condition met
O=C(Cn1nc(S(=O)(=O)c2cccc(F)c2)ccc1=O)N1CCc2ccccc2C1	RAW-Dual (murine macrophage reporter line)	condition met

Check if NF-kB reporter >= 1 (inclusive). Item: CC(C)c1cc(-c2n[nH]c(=O)n2-c2ccc3c(ccn3C)c2)c(O)cc1O
condition not met

Check if NF-kB reporter >= 1 (inclusive). Item: NC(=O)c1ncn([C@@H]2O[C@H](CO)[C@@H](O)[C@H]2O)c1O
condition met

Check if NF-kB reporter >= 1 (inclusive). Item: Cc1c(C)n2c3c(=O)n(CC=Cc4ccccc4)c(=O)n(C)c3nc2n1CCOCCO
condition met

Check if NF-kB reporter >= 1 (inclusive). Item: O.S=c1nc[nH]c2nc[nH]c12
condition not met

Check if NF-kB reporter >= 1 (inclusive). Item: CC1CN(C2=NC(=O)C(=Cc3ccc(-c4ccccc4Cl)o3)S2)CC(C)O1 (stereo unspecified)
condition not met

###

# Tested on: RAW-Dual (murine macrophage reporter line)
# ASSAY EXPLANATION: IRF reporter (Lucia luciferase) activity fold change vs agonist alone; higher = enhanced IRF activity
# DETAILS: modulator concentration 10 µM; agonist: 3'3'-cGAMP 10 ug/mL
TEST READOUT: IRF reporter
Answers are plain numbers.

Guide cases for IRF reporter, answers given:
COMPOUND	ASSAY RESULT
Cc1ccc(O)c(N=Nc2ccc(S(=O)(=O)O)cc2)c1	1.01
Oc1nc[nH]n1	1
Cc1nc[nH]c1CN1CCc2c(c3ccccc3n2C)C1=O.Cl	0.903

Give IRF reporter for each of the items listed below.
1. CC12CCC3c4ccc(O)cc4CCC3C1CC(O)C2O (stereo unspecified)
2. O=C1C(CCC(O)c2ccc(F)cc2)C(c2ccc(O)cc2)N1c1ccc(F)cc1 (stereo unspecified)
3. CCCc1nc2c(C)cc(-c3nc4ccccc4n3C)cc2n1Cc1ccc(-c2ccccc2C(=O)O)cc1

[0.596, 0.942, 0.997]

###

# System: RAW-Dual (murine macrophage reporter line)
# ASSAY EXPLANATION: NF-kB reporter (SEAP) activity fold change vs agonist alone; higher = enhanced NF-kB activity
# DETAILS: modulator concentration 10 µM; agonist: CpG ODN 1826 0.5 ug/mL
Hi there, I'd appreciate the recorded NF-kB reporter for every entry that follows.

Guide cases for NF-kB reporter, answers given:
COMPOUND	NF-kB reporter
CSc1nc(C(C)(C)C)cc(C(F)(F)F)c1C#N	0.738
Cc1c(C#N)sc2nc(-c3ccccc3)nc(N=CN(C)C)c12	1.01
Brc1ccc2ncnc(NCc3ccco3)c2c1	0.856
CN(C)CCC=C1c2ccccc2Sc2ccc(Cl)cc21.Cl	0.333
CC(Oc1ccc(Cl)cc1)C(=O)NCc1cccnc1 (centres undefined)	1.2

Give NF-kB reporter for each of the items listed below.
1. COc1ccc(S(=O)(=O)NC(C)C)c2ccccc12
2. CC(=O)c1ccc(Nc2ncnc(Nc3ccc(C(C)=O)cc3)c2[N+](=O)[O-])cc1
3. CCc1ccc2oc(-c3ccc(NC(=O)c4ccc(C)c([N+](=O)[O-])c4)cc3)nc2c1
4. CCOc1nc2cccc(C(=O)OC(C)OC(=O)OC3CCCCC3)c2n1Cc1ccc(-c2ccccc2-c2nnn[nH]2)cc1 (centres undefined)
5. Cc1cc(C(=O)O)n[nH]1

1: 0.904; 2: 1.04; 3: 1.02; 4: 0.672; 5: 1.01

Give NF-kB reporter for each of the items listed below.
1. Clc1ccc(Nc2nc(Nc3ccc(Cl)cc3)nc(N3CCOCC3)n2)cc1
2. COC(=O)CSc1ccc2nnc(-c3ccc(F)cc3)n2n1
3. CCC1(C)CC(CCN)(c2ccc(C)cc2)CCO1 (centres undefined)
4. O=C1CCC(N2C(=O)c3ccccc3C2=O)C(=O)N1 (centres undefined)
5. CCC(O)=C(C#N)c1nc2ccccc2n1C
6. CCN1C(=O)C(=Cc2cc(Br)ccc2OCCOc2ccccc2Cl)SC1=S
7. O=C(C=Cc1cccc([N+](=O)[O-])c1)NCCc1ccccc1
8. Cl.NCCCC[C@H](N)C(=O)O

1: 0.794; 2: 1.12; 3: 0.826; 4: 1.13; 5: 1.12; 6: 0.714; 7: 1.01; 8: 1.03

Give NF-kB reporter for each of the items listed below.
1. Nc1ccc(OCc2ccccc2)cc1
2. COc1cc(/C=C/C(=O)/C=C(O)/C=C/c2ccc(O)c(OC)c2)ccc1O
3. O=C(O)CCC(=O)O.O=C(O[C@H]1CN2CCC1CC2)N1CCc2ccccc2[C@@H]1c1ccccc1
4. COCC(C)NC(=O)c1ccc(Cl)c(Cl)c1 (centres undefined)
5. COC(=O)C1=C(C)NC(=Cc2c(F)cccc2Cl)C1=O
6. CN(C)CC(c1ccc(O)cc1)C1(O)CCCCC1.O=C(O)CCC(=O)O (centres undefined)

1: 0.977; 2: 0.662; 3: 0.544; 4: 1.13; 5: 0.944; 6: 0.101
